Hey, just so you know, these numbers are from patent US20240309109A1.

biological target: T1, human CD38 Fc-fusion aa 45-300 (human, UniProt P28907 45-300); assay: SPR (Biacore), Fab format
T1 construct: Expressed in HEK293 behind a human Vkappa leader, which is left out here; also called CD38-Fc fusion protein; CD38 Fc-Fusion protein
This listing pairs binders with measured Kd.
Write the number in nM without appending the unit.

| binder | measured.value |
| --- | --- |
| MOR06200 Fab (Fab, V domains shown, Fab format) VH: QVQLVESGGGLVQPGGSLRLSCAASGFTFSSYYMNWVRQAPGKGLEWVSAISNNGNVTYYADSVKGRFTISRDNSKNTLYLQMNSLRAEDTAVYYCARDLPLVYTGFAYWGQGTLVTVSS VL: DIELTQPPSVSVAPGQTARISCSGDNLRHYYVYWYQQKPGQAPVLVIYGDSKRPSGIPERFSGSNSGNTATLTISGTQAEDEADYYCQTYTGGASLVFGGGTKLTVL | 7.92 |
| MOR06195 Fab (Fab, V domains shown, Fab format) VH: QVQLVESGGGLVQPGGSLRLSCAASGFTFSSYYMNWVRQAPGKGLEWVSAISGNGGHTYYADSVKGRFTISRDNSKNTLYLQMNSLRAEDTAVYYCARDLPLVYTGFAYWGQGTLVTVSS VL: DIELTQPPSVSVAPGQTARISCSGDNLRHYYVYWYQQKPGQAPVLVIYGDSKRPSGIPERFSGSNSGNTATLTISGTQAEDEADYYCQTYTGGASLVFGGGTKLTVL | 4.52 |
| MOR06187 Fab (Fab, V domains shown, Fab format) VH: QVQLVESGGGLVQPGGSLRLSCAASGFTFSSYYMNWVRQAPGKGLEWVSAISSNGDITYYADSVKGRFTISRDNSKNTLYLQMNSLRAEDTAVYYCARDLPLVYTGFAYWGQGTLVTVSS VL: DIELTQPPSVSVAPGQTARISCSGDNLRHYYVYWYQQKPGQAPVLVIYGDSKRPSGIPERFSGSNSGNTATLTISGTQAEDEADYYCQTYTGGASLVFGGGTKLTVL | 12.5 |

Query: Value lookup for Kd; key = MOR06185 Fab (Fab, V domains shown, Fab format) VH: QVQLVESGGGLVQPGGSLRLSCAASGFTFSSYYMNWVRQAPGKGLEWVSAISMNGDYISYADSVKGRFTISRDNSKNTLYLQMNSLRAEDTAVYYCARDLPLVYTGFAYWGQGTLVTVSS VL: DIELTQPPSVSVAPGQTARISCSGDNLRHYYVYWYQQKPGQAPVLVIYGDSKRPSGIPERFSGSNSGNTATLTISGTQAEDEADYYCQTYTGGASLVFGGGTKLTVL
Reply: 4.39
